- System: 885724-159-R-J1-PDC complex spheroid viability;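 note: spheroids exposed to agents for seven days before readout; percent of vehicle control viability where 100% = DMSO wells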
- assay overview: Anticancer human tumor 885724-159-R-J1-PDC patient-derived pancreatic adenocarcinoma cell line growth inhibition [GQUAD]
- experimental parameters: second compound 0.0316 µM; first compound 0.0316 µM; active compounds read low
- Text: DNA G-quadruplex Stabilizer Agents in Combinations in Complex Spheroids A high-throughput screen of multi-cell type tumor spheroids was designed to identify active combinations of DNA G-quadruplex stabilizer agents and targeted small molecules. […] Compounds. […] If the clinical Cmax for an agent had not been determined, the highest concentration tested was 10 microM. […]
I'd appreciate it if you could supply viability, T/C values for the items below.
Write it as a number; the unit % goes unstated.

Query block: Value lookup for viability, T/C; key = COc1ncnc(C2CC2)c1-c1ncc2cnn(Cc3ccc(-c4nc(C(F)(F)F)cn4C(C)C)cc3)c2n1 + CN(C)c1ccc(Nc2c3ccc(NC(=O)CCN4CCCC4)cc3nc3cc(NC(=O)CCN4CCCC4)ccc23)cc1
Result block: 96.8

Query block: Value lookup for viability, T/C; key = Cc1[nH]c2ccccc2c1CCNCc1ccc(/C=C/C(=O)NO)cc1 + Cc1cnc(CNC(=O)c2c(=O)c3ccc(N4CCCN(C)CC4)nc3n3c2sc2ccccc23)cn1
Result block: 95.4

Query block: Value lookup for viability, T/C; key = Cc1cccc(N(C)C(=O)C2C(O)CCN2c2nc(C)cc(C(F)(F)F)c2C#N)c1 (stereo not given) + Cc1cnc(CNC(=O)c2c(=O)c3ccc(N4CCCN(C)CC4)nc3n3c2sc2ccccc23)cn1
Result block: 93.7

Query block: Value lookup for viability, T/C; key = CC[C@@]1(O)C(=O)OCc2c1cc1n(c2=O)Cc2cc3c(CN(C)C)c(O)ccc3nc2-1 + Cc1cnc(CNC(=O)c2c(=O)c3ccc(N4CCCN(C)CC4)nc3n3c2sc2ccccc23)cn1
Result block: 106

Query block: Value lookup for viability, T/C; key = COc1ccc([C@@H](O)c2cc(-c3ncnc4cc(N5CCOCC5)ccc34)c(F)cc2Cl)nn1 + Cc1[nH]c2ccc(F)cc2c1-c1nc2c3cccnc3c3ncccc3c2[nH]1
Result block: 101
